FYI, the data here is from patent US11111251B2.

experimental.target: human mAChR M1 (Homo sapiens)
assay.method.text: mAChR M1 cell-based functional assay: calcium mobilization, positive allosteric modulator mode (increase in EC20 acetylcholine response)
condition.context: Table 1; mAChR M1 cell-based functional assay, PAM mode; species not given; read-out: EC50
This listing pairs molecules with measured EC50.
// units = µM; emit number, no label

Cn1cc2c(-c3ccc(Oc4cc(C(=O)N[C@H]5CCOC[C@@H]5O)nc5ccsc45)c(F)c3)cccc2n1 | 4.12

Would you kindly look at the next entry?
Query: Sample "Cc1ccc(Cc2cc(C(=O)NC3CCOCC3)nc3ccsc23)cn1" — what was its EC50?
Response: 4.96

* * *

experimental.target: human mAChR M1 (Homo sapiens, UniProt P11229)
assay.method.text: mAChR M1 cell-based functional assay: calcium mobilization, positive allosteric modulator mode (increase in EC20 acetylcholine response)
condition.context: Table 2; human M1; read-out: Human M1 EC50
measure.name: pEC50
A value of pEC50 is the negative decimal logarithm of a concentration given in moles per litre.

Example cases with answers are listed next.
Cc1csc2c(Cc3ccc(-n4cccn4)cc3)cc(C(=O)NC3CCCNC3=O)nc12 (stereo not shown) | 6.06
Cn1ccc(-c2ccc(Cc3cc(C(=O)NC4CC(F)C4)nc4ccsc34)cn2)n1 (stereo not shown) | 6.12
Cn1ccc(-c2ccc(Cc3cc(C(=O)NC[C@@H]4CCCN4)nc4ccsc34)cn2)n1 | 6.54

Query: Sample "Cc1ncc(Cc2cc(C(=O)N[C@@H]3CCOC[C@H]3O)nc3ccsc23)s1" — what was its pEC50?
Response: 6.26

* * *

experimental.target: human mAChR M1 (Homo sapiens, UniProt P11229)
Sequence (P11229 1-460): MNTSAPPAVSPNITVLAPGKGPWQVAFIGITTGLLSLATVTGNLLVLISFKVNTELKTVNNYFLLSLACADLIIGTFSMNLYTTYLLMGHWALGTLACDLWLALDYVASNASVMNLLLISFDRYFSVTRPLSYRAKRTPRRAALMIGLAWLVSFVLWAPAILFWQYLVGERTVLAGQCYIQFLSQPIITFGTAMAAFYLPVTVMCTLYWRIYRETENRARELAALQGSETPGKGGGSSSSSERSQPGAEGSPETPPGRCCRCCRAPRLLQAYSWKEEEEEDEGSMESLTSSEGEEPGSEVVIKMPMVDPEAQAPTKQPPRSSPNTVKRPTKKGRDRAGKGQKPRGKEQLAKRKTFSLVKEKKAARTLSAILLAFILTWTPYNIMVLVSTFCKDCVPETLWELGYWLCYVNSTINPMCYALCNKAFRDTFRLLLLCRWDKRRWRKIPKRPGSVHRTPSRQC
assay.method.text: mAChR M1 cell-based functional assay: calcium mobilization, positive allosteric modulator mode (increase in EC20 acetylcholine response)
condition.context: Table 2; human M1; read-out: Human M1 EC50
# strict inequality: EC50 < 600 nM yields T, everything else yields F

Please review the following examples before continuing.
Cc1nn(C)cc1-c1ccc(Cc2cc(C(=O)N[C@H]3COCC[C@@H]3O)nc3ccsc23)cc1 [Compound 249] | F
Cn1ccc(-c2ccc(Cc3cc(C(=O)N[C@H]4CCC[C@@H]4O)nc4ccsc34)cn2)n1 [Compound 352] | T

Query: Bench note: check whether Cn1ccc(-c2ccc(Cc3cc(C(=O)NC4CC5(COC5)C4)nc4ccn(C)c34)cn2)n1 [Compound 507] shows EC50 below 600 nM
Response: F

Query: Bench note: check whether Cn1ccc(-c2ccc(Cc3cc(C(=O)NCC4CCCCO4)nc4ccsc34)cn2)n1 (stereo not shown) [Compound 359] shows EC50 below 600 nM
Response: T

Query: Bench note: check whether Cn1ccc(-c2ccc(Cc3cc(C(=O)N[C@@H]4CCCOC4)nc4ccsc34)cn2)n1 [Compound 423] shows EC50 below 600 nM
Response: F

Query: Bench note: check whether Cc1ccc(Cc2cc(C(=O)NC3CCCNC3=O)nc3c(C)csc23)cn1 (stereo not shown) [Compound 110] shows EC50 below 600 nM
Response: F

Query: Bench note: check whether Cc1nc(-c2ccc(Cc3cc(C(=O)NC4CC5(COC5)C4)nc4ccsc34)cc2)cs1 [Compound 178] shows EC50 below 600 nM
Response: F

Query: Bench note: check whether O=C(N[C@@H]1CCCC[C@H]1O)c1cc(Cc2ccc(-n3cccn3)cc2)c2sccc2n1 [Compound 73] shows EC50 below 600 nM
Response: T

Query: Bench note: check whether O=C(N[C@@H]1CCOC[C@H]1O)c1cc(Cc2ccc(-n3cccn3)cc2)c2sccc2n1 [Compound 74] shows EC50 below 600 nM
Response: T

Query: Bench note: check whether O=C(NC1COC1)c1cc(Cc2ccc(-n3cccn3)cc2)c2sccc2n1 [Compound 279] shows EC50 below 600 nM
Response: F

Query: Bench note: check whether Cn1ncc2nc(C(=O)NC3CC4(COC4)C3)cc(Cc3ccc(-n4cccn4)cc3)c21 [Compound 500] shows EC50 below 600 nM
Response: F

Query: Bench note: check whether Cn1ncc2nc(C(=O)N[C@H]3CCC[C@@H]3O)cc(Cc3ccc(-n4cccn4)cc3)c21 [Compound 497] shows EC50 below 600 nM
Response: F

Query: Bench note: check whether Cc1cc2nc(C(=O)N[C@H]3CCCC[C@@H]3O)cc(Cc3ccc(-n4cccn4)cc3)c2s1 [Compound 237] shows EC50 below 600 nM
Response: T

Query: Bench note: check whether Cn1ncc2nc(C(=O)NC3CC4(COC4)C3)cc(Cc3ccc(-c4cscn4)cc3)c21 [Compound 489] shows EC50 below 600 nM
Response: F

Query: Bench note: check whether Cn1ccc2nc(C(=O)NC3CC4(COC4)C3)cc(Cc3ccc(-n4cccn4)cc3)c21 [Compound 449] shows EC50 below 600 nM
Response: T

Query: Bench note: check whether Cn1cc(-c2cc(F)c(Cc3cc(C(=O)N[C@H]4CCOC[C@@H]4O)nc4ccsc34)c(F)c2)cn1 [Compound 59] shows EC50 below 600 nM
Response: F
